- System: lacZ under control of the tetA promoter (PtetA) in E. coli KM3
- Format: cell-based
- reported.conditions: Table 6, reverse repressor hits; chlorsulfuron, same plate assay format (20 ppm)
relative β-galactosidase activity, inducer Cs by entry:

L1-33: library L1 hit with reverse repressor activity (SEQ ID NO: 1206-1213) (protein, rSuR L1-33) MGSRLDKSKVINSALELLNEVGIEGLTTRKLAQKLGVEQPTLYWHVKNKRALLDALAIEMLDRHATHFCPLEGESWQDFLRNNAKSMRCALLSHRDGAKVQLGTAATEKQYETLENKLAFLCQQGFSLENALYAHSAVTQFTLGCVLRDQEGQVAKEERETPTTDSMPPLLRQARELRDHQGAEPAFLFGLELIICGLEKQLKCESGS ... 3.74

Briefly, relative β-galactosidase activity, inducer Cs measured for L1-25: library L1 hit with reverse repressor activity (SEQ ID NO: 1206-1213) (protein, rSuR L1-25) MGSRLDKSKVINSALELLNEVGIEGLTTRKLAQKLGVEQPTLYWHVKNKRALLDALAIEMLDRHATHFCPLEGESWQDFLRNTAKSMRCALLSHRDGAKVLLGTATTEKQYETLENLLAFLYQQGFSLENALYAWQAVWRFTLGCVLIDQETQVAKEERETPTTDSMPPLLRQAVELKDHQGAEPAFLFGLELIICGLEKQLKCETGS : 0.28

Briefly, relative β-galactosidase activity, inducer Cs measured for L1-18: library L1 hit with reverse repressor activity (SEQ ID NO: 1206-1213) (protein, rSuR L1-18) MGSRLDKSKVINSALELLNEVGIEGLTTRKLAQKLGVEQPTLYWHVKNKRALLDALAIEMLDRHLTHFCPLEGESWQDFLRNNAKSMRCALLSHRDGAKVWLGTGFTEKQYETKENRLAFLCQQGFSLENALYAIRAVSRFTLGCVLQDQEPQVAKEERETPTTDSMPPLLRQAVELFDHQGAEPAFLFGLELIICGLEKQLKCESES : 1.22

Briefly, relative β-galactosidase activity, inducer Cs measured for L1-39: library L1 hit with reverse repressor activity (SEQ ID NO: 1206-1213) (protein, rSuR L1-39) MGSRLDKSKVINSALELLNEVGIEGLTTRKLAQKLGVEQPTLYWHVKNKRALLDALAIEMMDRHQTHFCPLEGESWQDFLRNTAKSYRCALLSHRDGAKVILGTRWTEKQYETRENVLAFLCQQGFSLENALYAWAAVGPFTLGCVLRDQERQVAKEERETPTTDSMPPLLRQALELMDHQGAEPAFLFGLELIICGLEKQLKCESGS : 0.89

Measured values drawn from patent US9206432B2 for this set.
